MEASUREMENT DESCRIPTION: Toxicity liver stage against HepG2, at 10uM
Format: cell-based
Design: test concentration 10 uM, cell line HepG2-A16-CD81EGFP
RECORDED CONDITIONS: human, HepG2-A16-CD81EGFP cells; read-out: INHIBITION
Reported cytotoxicity at 10 µM values follow for various compounds
Please format your answer as a value with the unit trailing.

See these solved cases before continuing.
{"COMPOUND": "Cc1ccc(-c2nc(CN3CCc4cnc(C)nc4C3)no2)cc1", "cytotoxicity at 10 µM": "-5.12%"}
{"COMPOUND": "Cc1cnn(CC2CCCN2C(=O)c2sccc2C#N)c1 (configuration not stated)", "cytotoxicity at 10 µM": "12.3%"}
{"COMPOUND": "Cc1nccn1-c1cc(CNC(=O)c2ccnc(N(C)C)c2)ccn1", "cytotoxicity at 10 µM": "2.32%"}
{"COMPOUND": "Cc1nc2c(C(=O)O)cccc2n1-c1ccc(C(=O)N2CCCC2)o1", "cytotoxicity at 10 µM": "-2.36%"}
{"COMPOUND": "Cc1cc(N)n(-c2ccc3nnc(C)n3n2)n1", "cytotoxicity at 10 µM": "5.89%"}
{"COMPOUND": "CN(Cc1ccccc1)C(=O)CN1CCCC(Cn2cncn2)C1 (configuration not stated)", "cytotoxicity at 10 µM": "-11.8%"}
{"COMPOUND": "O=C(NCCc1ccc(Cl)s1)N1CCS(=O)(=O)CC1", "cytotoxicity at 10 µM": "1.92%"}
{"COMPOUND": "COc1cccc(C(=O)NS(=O)(=O)c2cccc(C#N)c2)c1", "cytotoxicity at 10 µM": "-6.12%"}
{"COMPOUND": "COc1cccc(C(=O)NC(c2ccccn2)C2CCC(CN)CC2)c1 (configuration not stated)", "cytotoxicity at 10 µM": "-9.33%"}
{"COMPOUND": "CCN(CC)c1ncnc2c1CCN(c1ccc(C)nn1)CC2", "cytotoxicity at 10 µM": "-108%"}

Turning now to a further record.
The compound identified as Cc1nccc([C@H]2C[C@@H]3CCN(C(=O)c4c(C)noc4C)C[C@H]3O2)n1 registered its cytotoxicity at 10 µM at -83.3%

---

MEASUREMENT DESCRIPTION: Toxicity liver stage against HepG2, at 10uM
Format: cell-based
Set-up: test concentration 10 uM, cell line HepG2-A16-CD81EGFP
RECORDED CONDITIONS: human, HepG2-A16-CD81EGFP cells; read-out: INHIBITION
Documented cytotoxicity at 10 µM across a set of compounds
Could you give me the number in %? Just the number is fine.

{"COMPOUND": "Cc1cc(-c2cc(S(=O)(=O)N3C[C@H](C4CC4)[C@@H](N)C3)c(C)s2)on1", "ENDPOINT RESULT": 3.37}
{"COMPOUND": "COc1cc(NC(=O)c2ccc(CN3CC[C@H](O)C3)cc2)cc(OC)c1", "ENDPOINT RESULT": 10.5}

Reported cytotoxicity at 10 µM ( COC(=O)c1ccoc1COC(=O)CCc1ccc(OC)c(OC)c1 ) = 5.27

Item: COc1ccnc(C(=O)N2CCCC(c3noc(C)n3)C2)c1 (centres undefined) | cytotoxicity at 10 µM: -4.64

// recorded cytotoxicity at 10 µM for O=C(CNc1ccc(OC2CCOC2)cc1)NCc1ccco1 (centres undefined) : 5.03

In plain terms, Cc1csc(N2CCN(C(=O)Cc3cccs3)CC2)n1 has a documented cytotoxicity at 10 µM of -23.3

Looking up COc1ccc(Cl)cc1CS(=O)(=O)Cc1nc(C)no1 , I see its cytotoxicity at 10 µM listed as -2.53

Lab note: Cn1cc(C(=O)NCc2ccc(N3CCNC(=O)C3)c(F)c2)cn1 gave cytotoxicity at 10 µM of -2.97

Entry O=C(O)CSc1nnc(-c2ccn[nH]2)n1-c1ccccc1C(F)(F)F — recorded cytotoxicity at 10 µM = -3.85

Consider Cc1nc(CN(C)C2CCN(CCCc3ccccc3)C2)no1 (centres undefined) . Its measured cytotoxicity at 10 µM is -16.1
